Just for reference, PubChem BioAssay (NCI) is where these values come from.

# run description: NCI Yeast Anticancer Drug Screen. Data for the mlh1 rad18 strain (AID 175)
# condition description: S. cerevisiae mlh1 rad18 strain growth inhibition; at 50.0 µM; active compounds read high
This is part of a sample that, as a whole, favours compounds with a hit. Of some 79,000 tested, about 15% had one in any assay.
Entries annotated with measured growth inhibition

[
  {
    "compound": "CC1NC(C)SC(C)S1 (configuration not stated)",
    "growth inhibition / %": 36.8
  },
  {
    "compound": "CCCCCCCCCCCCCCCC(=O)Oc1ccc(C(=S)N2CCOCC2)cc1",
    "growth inhibition / %": 13.9
  },
  {
    "compound": "Cc1ccc(-c2cn3c(nc4ccccc43)c(-c3ccccc3)n2)cc1",
    "growth inhibition / %": -45
  },
  {
    "compound": "CCc1cc(Cc2cc(CC)c(NC(=O)C(=O)CC(=O)c3sc(-c4cccnc4)nc3C)c(CC)c2)cc(CC)c1NC(=O)C(=O)CC(=O)c1sc(-c2cccnc2)nc1C",
    "growth inhibition / %": -19.8
  },
  {
    "compound": "Clc1ccc(C2=CSC3=NCCN23)cc1",
    "growth inhibition / %": 1.25
  },
  {
    "compound": "COC(=O)C1CCCN1C(=O)c1ccccc1 (configuration not stated)",
    "growth inhibition / %": 11.6
  },
  {
    "compound": "NCC(=O)NCC(=O)NCC(=O)NCC(=O)NCC(=O)NCC(=O)O",
    "growth inhibition / %": -3.65
  },
  {
    "compound": "COc1cc2c(cc1OC)C(=O)/C(=C/c1ccc(N(C)C)cc1)CC2",
    "growth inhibition / %": -39.8
  },
  {
    "compound": "O=c1ccc2c(O)c([N+](=O)[O-])cc([N+](=O)[O-])c2[nH]1",
    "growth inhibition / %": 20.2
  },
  {
    "compound": "COc1ccc(CCC2c3cc(OC)c(OC)cc3CCN2C)cc1OC (configuration not stated)",
    "growth inhibition / %": -4.85
  },
  {
    "compound": "CC(Cc1ccccc1)NC(=O)C1CC2CCCCN2C1C (configuration not stated)",
    "growth inhibition / %": 48.6
  },
  {
    "compound": "OC1(C#CC2(O)CCCC2)CCCC1",
    "growth inhibition / %": 23.9
  },
  {
    "compound": "CCCCNC[C@@H](O)[C@H](O)COS(C)(=O)=O",
    "growth inhibition / %": -7.05
  },
  {
    "compound": "C1CSCC2(COC2)CSCCSCC2(COC2)CS1",
    "growth inhibition / %": -18.6
  },
  {
    "compound": "O=C1CSC(c2cccnc2)N1CCN1C(=O)CSC1c1cccnc1 (configuration not stated)",
    "growth inhibition / %": 19.4
  },
  {
    "compound": "CC(C)(CCCOc1ccccc1)NC(=O)c1ccccc1",
    "growth inhibition / %": 6.15
  },
  {
    "compound": "OC(C(=S)N1CCCC1)(c1ccccc1)c1ccccc1",
    "growth inhibition / %": -0.6
  },
  {
    "compound": "CCOC(=O)NN(C(=O)OCC)c1c(NN)n(C)c(=O)n(C)c1=O",
    "growth inhibition / %": -11.5
  },
  {
    "compound": "Cc1ccc(/C=C/C(=O)c2sc(-n3nc(-c4ccccc4)cc3-c3ccccc3)nc2C)cc1",
    "growth inhibition / %": -7.4
  },
  {
    "compound": "O=C1CC2C(=O)N(Cc3ccccc3)C1C(S(=O)(=O)c1ccccc1)C2S(=O)(=O)c1ccccc1 (configuration not stated)",
    "growth inhibition / %": 23.9
  },
  {
    "compound": "Nc1[nH]c(=S)[nH]c(=O)c1NS(=O)(=O)c1cccc([N+](=O)[O-])c1",
    "growth inhibition / %": 12.8
  },
  {
    "compound": "CCCN(CCC)S(=O)(=O)c1ccc(NC(=O)OC(c2ccccc2)(c2ccccc2)c2ccccc2)cc1",
    "growth inhibition / %": 0.95
  },
  {
    "compound": "Cc1cccnc1Br",
    "growth inhibition / %": -26.1
  },
  {
    "compound": "O=C1c2ccccc2C(=O)C2C3c4ccccc4C(c4ccccc43)C12 (configuration not stated)",
    "growth inhibition / %": -57.5
  },
  {
    "compound": "N#C/C(=C1\\OC(N)=C(c2ccc(Cl)cc2)C1=O)c1ccc(Cl)cc1",
    "growth inhibition / %": 9.2
  },
  {
    "compound": "NC1Nc2ccccc2NC1=O (configuration not stated)",
    "growth inhibition / %": 0.05
  },
  {
    "compound": "C=C1CC(C)(Cn2cnc3c(=O)[nH]cnc32)OC1=O (configuration not stated)",
    "growth inhibition / %": 21.6
  },
  {
    "compound": "N#Cc1c2c(c(-c3cccs3)n(C3OC(CO)C(O)C(O)C3O)c1=S)CCc1ccccc1-2 (configuration not stated)",
    "growth inhibition / %": 1.6
  },
  {
    "compound": "C1OC[C@@H]([C@H]2COCO2)O1",
    "growth inhibition / %": -11.7
  },
  {
    "compound": "COc1ccc(C(O)C(NCc2ccccc2)c2ccccc2)cc1 (configuration not stated)",
    "growth inhibition / %": 23.9
  },
  {
    "compound": "Brc1ccccc1C=NC12CC3CC(CC(C3)C1)C2",
    "growth inhibition / %": -5
  },
  {
    "compound": "COc1cc(C2c3cc4c(cc3OC(N3CCCC3)C2C)OCO4)cc(OC)c1OC (configuration not stated)",
    "growth inhibition / %": 6.55
  },
  {
    "compound": "CC(C)c1ccc(/C=N\\NC(=O)NNC(=O)c2ccccc2)cc1",
    "growth inhibition / %": -8.25
  },
  {
    "compound": "S=C1SCN(c2ccc3c(c2)OCO3)CN1c1ccc2c(c1)OCO2",
    "growth inhibition / %": -20.1
  },
  {
    "compound": "O=C(O)c1ccccc1NCn1c(=S)sc2ccccc21",
    "growth inhibition / %": 53.9
  },
  {
    "compound": "Nc1cc(=O)n(-c2ccccc2)nc1Cl",
    "growth inhibition / %": 0.2
  },
  {
    "compound": "CCC(=O)NC1CCCCC1",
    "growth inhibition / %": 1.4
  },
  {
    "compound": "N#CC(F)(F)C(F)(F)C(F)(F)C(F)(F)C(F)(F)C(F)(F)C(F)(F)F",
    "growth inhibition / %": -4.6
  },
  {
    "compound": "CN(C)c1ccc2c(c1)Cc1cc(NC(=O)CCC(=O)O)ccc1-2",
    "growth inhibition / %": 14.3
  },
  {
    "compound": "COc1ccc2cc3n(cc-2c1=O)CCc1cc2c(cc1-3)OCO2",
    "growth inhibition / %": 1.45
  },
  {
    "compound": "C[N+](C)(CCCn1ccnc1[N+](=O)[O-])CCCn1ccnc1[N+](=O)[O-]",
    "growth inhibition / %": 4.8
  },
  {
    "compound": "Oc1cccc(O)c1",
    "growth inhibition / %": 33.1
  },
  {
    "compound": "C/C=C/Cc1ccc(O)cc1",
    "growth inhibition / %": -1.05
  },
  {
    "compound": "O=C(O)c1c[nH]c2c([N+](=O)[O-])cccc2c1=O",
    "growth inhibition / %": 28.4
  },
  {
    "compound": "CNC(=O)N(CC1CCCCC1)c1nc2c(=O)n(C)c(=O)[nH]c2s1",
    "growth inhibition / %": -3.6
  },
  {
    "compound": "c1ccc(-c2cnn3c(-c4ccccc4)cnnc23)cc1",
    "growth inhibition / %": 4.65
  },
  {
    "compound": "CN(C)c1ccc(CC2Cc3ccccc3C2O)cc1 (configuration not stated)",
    "growth inhibition / %": 5.9
  }
]
